biological target: C. elegans Slo-1a (Caenorhabditis elegans); assay: In vitro assay 1: C. elegans Slo-1a, action at a recombinant C. elegans CHO cell line (membrane potential measurement)
Sequence (Q95V25 whole entry): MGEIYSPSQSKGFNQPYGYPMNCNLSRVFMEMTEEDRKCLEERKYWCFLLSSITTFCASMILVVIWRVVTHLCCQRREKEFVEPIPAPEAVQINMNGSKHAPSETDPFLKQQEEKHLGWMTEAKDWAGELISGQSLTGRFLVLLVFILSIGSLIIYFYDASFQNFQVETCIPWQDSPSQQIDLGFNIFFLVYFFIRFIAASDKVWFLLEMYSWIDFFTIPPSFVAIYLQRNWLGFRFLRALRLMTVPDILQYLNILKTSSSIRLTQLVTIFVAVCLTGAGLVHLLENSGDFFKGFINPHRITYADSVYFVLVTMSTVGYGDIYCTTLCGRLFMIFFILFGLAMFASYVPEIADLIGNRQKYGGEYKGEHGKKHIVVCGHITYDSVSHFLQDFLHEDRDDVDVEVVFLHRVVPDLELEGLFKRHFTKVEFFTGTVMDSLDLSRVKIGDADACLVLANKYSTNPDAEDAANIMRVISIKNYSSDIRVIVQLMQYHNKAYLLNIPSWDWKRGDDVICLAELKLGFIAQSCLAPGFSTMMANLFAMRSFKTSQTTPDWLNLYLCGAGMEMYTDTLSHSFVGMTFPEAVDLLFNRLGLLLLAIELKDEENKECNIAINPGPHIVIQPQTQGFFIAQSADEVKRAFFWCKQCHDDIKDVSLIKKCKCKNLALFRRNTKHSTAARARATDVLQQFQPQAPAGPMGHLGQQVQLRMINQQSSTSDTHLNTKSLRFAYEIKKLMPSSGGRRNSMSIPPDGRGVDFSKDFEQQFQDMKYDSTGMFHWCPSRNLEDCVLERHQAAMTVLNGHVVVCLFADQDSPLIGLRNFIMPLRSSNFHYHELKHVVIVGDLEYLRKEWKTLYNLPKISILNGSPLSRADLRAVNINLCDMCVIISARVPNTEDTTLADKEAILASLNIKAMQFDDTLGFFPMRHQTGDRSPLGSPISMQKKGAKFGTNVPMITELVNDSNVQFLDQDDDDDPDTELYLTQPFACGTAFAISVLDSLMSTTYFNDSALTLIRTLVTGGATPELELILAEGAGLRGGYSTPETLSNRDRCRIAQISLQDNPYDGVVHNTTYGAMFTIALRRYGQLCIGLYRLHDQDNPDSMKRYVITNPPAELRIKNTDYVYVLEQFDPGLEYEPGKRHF
assay.endpoint: EC50 (nM)

>>> measurement("Cc1nn2c(C(C)C)c(C(=O)N[C@H]3CCOc4ccccc43)cnc2c1-c1cc(F)ccc1F")
6.31
>>> measurement("Cc1nn2c(C(C)C)c(C(=O)N[C@H]3CCCc4ccccc43)cnc2c1-c1cccc(Cl)c1Cl")
6.31
>>> measurement("Cc1nn2c(C3CC3)c(C(=O)N[C@H]3CCc4ccccc43)cnc2c1-c1c(F)cccc1F")
3.16
>>> measurement("Cc1nn2c(C(C)C)c(C(=O)NC3CCCc4ccccc43)cnc2c1-c1cccc(C(F)(F)F)c1 (stereo not shown)")
31.6
>>> measurement("COc1cc(-c2c(C(F)(F)F)nn3c(C(C)C)c(C(=O)N[C@H]4CCc5ccccc54)cnc23)ccc1F")
100
>>> measurement("Cc1nn2c(C(C)C)c(C(=O)N[C@H]3CCc4ccccc43)cnc2c1-c1cc(Cl)cc(Cl)c1F")
1.58
>>> measurement("Cc1nn2c(C(F)F)c(C(=O)N[C@H]3CCc4ccccc43)cnc2c1-c1cccc(C(F)(F)F)c1")
200

----------
target: C. elegans Slo-1a (Caenorhabditis elegans); assay: In vitro assay 1: C. elegans Slo-1a, action at a recombinant C. elegans CHO cell line (membrane potential measurement)
assay.endpoint: log10 EC50 (log10 of the value in nM)

>>> measurement("CNc1c(C(=O)N[C@H]2CCOc3ccccc32)cnc2c(-c3cccc(Cl)c3Cl)c(C)nn12")
0.80
>>> measurement("COc1cccc(-c2c(C)nn3c(C4CC4)c(C(=O)N[C@H]4CCc5ccccc54)cnc23)c1")
0.60
>>> measurement("CC(C)c1c(C(=O)N[C@H]2CCOc3ccccc32)cnc2c(-c3cc(Cl)cc(Cl)c3)c(S(=O)(=O)C(C)C)nn12")
2.60
>>> measurement("CCN(CC)c1cccc(-c2c(C)nn3c(C(C)C)c(C(=O)N[C@H]4CCc5ccccc54)cnc23)c1")
2.00
>>> measurement("Cc1nn2c(C(C)C)c(C(=O)N[C@H]3CCOc4ccccc43)cnc2c1-c1cccc(F)c1F")
0.80
>>> measurement("Cc1nn2c(C(C)C)c(C(=O)N[C@H]3CCOc4ccccc43)cnc2c1-c1ccc2c(c1)NCC2")
1.70
>>> measurement("Cc1nn2c(C3CC3)c(C(=O)N[C@H]3CCOc4ccccc43)cnc2c1-c1cccc(OC(F)(F)F)c1")
0.80
>>> measurement("Cc1nn2c(C3CC3)c(C(=O)N[C@H]3CCc4ccccc43)cnc2c1-c1ccccc1Cl")
0.40
>>> measurement("Cc1nn2c(C(C)C)c(C(=O)N[C@H]3CCc4ccccc43)cnc2c1-c1cccc(F)c1Cl")
0.30
>>> measurement("CC(C)c1c(C(=O)N[C@H]2CCCc3ccccc32)cnc2c(-c3ccccc3Cl)c(Cl)nn12")
1.50
>>> measurement("Cc1nn2c(C3CC3)c(C(=O)N[C@H]3CCc4ccccc43)cnc2c1-c1cccc(Cl)c1")
0.80
>>> measurement("COc1c(F)cc(F)c(-c2c(C)nn3c(N4CCOCC4)c(C(=O)N[C@H]4CCOc5ccccc54)cnc23)c1F")
0.00

----------
molecular target: C. elegans Slo-1a (Caenorhabditis elegans); assay: In vitro assay 1: C. elegans Slo-1a, action at a recombinant C. elegans CHO cell line (membrane potential measurement)
pEC50: −log10 of the molar value.
assay.endpoint: pEC50

>>> measurement("CCN(CC)Cc1cccc(-c2c(C)nn3c(C(C)C)c(C(=O)N[C@H]4CCc5ccccc54)cnc23)c1 [Example 355]")
5.60
>>> measurement("Cc1nn2c(C(C)C)c(C(=O)N[C@H]3CCc4ccccc43)cnc2c1-c1ccc(N(C)C)cc1 [Example 342]")
6.70
>>> measurement("Cc1ccccc1-c1c(C)nn2c(N3CCOCC3)c(C(=O)N[C@H]3CCOc4ccccc43)cnc12 [Example 536]")
8.30
>>> measurement("COCc1c(C(=O)N[C@H]2CCc3ccccc32)cnc2c(-c3cccc(C(F)(F)F)c3)c(C)nn12 [Example 305]")
7.20
>>> measurement("COCc1cccc(-c2c(C)nn3c(C4CC4)c(C(=O)N[C@H]4CCc5ccccc54)cnc23)c1 [Example 350]")
8.00
>>> measurement("COc1cc(F)cc(-c2c(C)nn3c(C(C)C)c(C(=O)N[C@H]4CCc5ccccc54)cnc23)c1 [Example 325]")
7.70
>>> measurement("Cc1nn2c(C(C)C)c(C(=O)N[C@H]3CCOc4ccccc43)cnc2c1-c1cccc(C(F)(F)F)c1 [Example 6]")
7.90
